Overview of reported melting point across a group of molecules:

{"columns": ["molecule", "melting point"],
 "data": [
  ["O=C(O)C1CC(=O)N(c2ccc3c(c2)OCO3)C1 (centres undefined)", "172 to 174 °C"],
  ["CNCc1ccc(N)nc1", "84 to 86 °C"],
  ["O=C(O)c1ncc(Cl)cc1Cl", "139 to 141 °C"],
  ["CN1CCCC(N(C)C(=O)c2ccc(N)cc2)C1 (centres undefined)", "116 to 118 °C"],
  ["O=C(CCl)NC1CCCCNC1=O (centres undefined)", "196 to 198 °C"],
  ["Nc1cnccc1SCCCO", "71 to 73 °C"],
  ["Cn1ccnc1CC#N", "39 to 41 °C"],
  ["CNCC(O)COc1ccc2c(c1)OCO2 (centres undefined)", "93 to 95 °C"],
  ["Nc1ccc(-c2nccn2C(F)F)cc1", "84 to 86 °C"],
  ["NCC(O)COc1ccc(I)cc1 (centres undefined)", "129 to 131 °C"],
  ["OC(O)c1nc(-c2ccccc2)no1", "103 to 105 °C"],
  ["COC(=O)c1cc([N+](=O)[O-])cnc1C", "58 to 60 °C"],
  ["O=C(Nc1ccc2c(c1)OCCO2)OCC(F)(F)F", "103 to 105 °C"],
  ["O=C(NO)c1occc1CSc1ccccc1", "99 to 101 °C"],
  ["Cc1sc(-c2ccco2)nc1C(=O)O", "229 to 231 °C"],
  ["N#Cc1cccc(C(F)(F)F)n1", "36 to 38 °C"],
  ["COC(=O)c1cccc(S(=O)(=O)N2CCCCC2)c1", "83 to 85 °C"],
  ["CC(=O)N1CCN(C(=O)CCC(=O)O)CC1", "110 to 116 °C"],
  ["O=C(O)c1cccnc1-n1cccn1", "106 to 108 °C"],
  ["Nc1nc2cnc(Cl)nc2s1", "209 to 211 °C"],
  ["Nc1ccc(S(=O)(=O)Nc2ccccc2Cl)c(Cl)c1", "239 to 241 °C"],
  ["CCOc1cc(/C=C/C(=O)O)ccc1OC", "164 to 166 °C"],
  ["O=Cc1cnn(-c2ccc(F)cc2)c1", "120 to 122 °C"],
  ["Clc1ccc(OCCBr)c(Br)c1", "30 to 32 °C"],
  ["COc1cc(C)c(C(C)=O)cc1C", "74 to 76 °C"],
  ["CC(C)(C)OC(=O)N1CC2NCCOC2C1 (centres undefined)", "54 to 56 °C"],
  ["COc1ccc(N)cc1CO", "115 to 117 °C"],
  ["COC(=O)C(=O)CC(=O)c1ccc(OC)cc1F", "101 to 103 °C"],
  ["O=C(NC1CC1)c1ccc(Cl)c([N+](=O)[O-])c1", "130 to 132 °C"],
  ["CC(=O)c1ccc(Cl)c(S(=O)(=O)Cl)c1", "111 to 113 °C"],
  ["COC(=O)c1nonc1N", "115 to 117 °C"],
  ["COc1ccc(Sc2ccc(N)cc2)cc1", "93 to 95 °C"],
  ["CC(C)c1ccc(SC(C(=O)O)c2ccccc2)cc1 (centres undefined)", "99 to 101 °C"],
  ["CC(C)c1cccc(N2CC(C(=O)O)CC2=O)c1 (centres undefined)", "126 to 128 °C"],
  ["O=C(O)c1cc(S(=O)(=O)Cl)cc(F)c1Cl", "149 to 151 °C"],
  ["CCOCc1c(C(=O)O)oc2ccccc12", "103 to 105 °C"],
  ["C#Cc1cnc2ccccc2n1", "99 to 101 °C"],
  ["Cc1ccc(COc2cccc(N)c2)cc1", "81 to 83 °C"],
  ["NCCNc1ncnc2sccc12", "117 to 119 °C"]
]}
